# system: JNK3 (Homo sapiens (Human), UniProt P53779)
# Sequence (P53779 whole entry): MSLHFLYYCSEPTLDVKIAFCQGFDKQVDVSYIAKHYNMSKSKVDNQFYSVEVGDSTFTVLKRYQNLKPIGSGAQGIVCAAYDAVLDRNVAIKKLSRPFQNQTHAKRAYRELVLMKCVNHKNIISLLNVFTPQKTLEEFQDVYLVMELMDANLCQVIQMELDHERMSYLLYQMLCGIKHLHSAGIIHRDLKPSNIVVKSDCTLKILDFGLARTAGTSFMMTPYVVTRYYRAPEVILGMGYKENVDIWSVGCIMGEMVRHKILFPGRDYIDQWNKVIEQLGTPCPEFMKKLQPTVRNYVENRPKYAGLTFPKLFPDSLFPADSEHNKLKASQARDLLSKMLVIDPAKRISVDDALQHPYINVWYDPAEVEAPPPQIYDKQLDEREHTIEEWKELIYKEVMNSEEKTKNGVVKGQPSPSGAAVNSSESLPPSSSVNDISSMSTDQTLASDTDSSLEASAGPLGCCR
# test: KinaseProfiler off-target kinase profiling
# Format: biochemical
# protocol.conditions: 10 μM, ATP near Km
measured.quantity: Avg. POC (POC)
Give bare numbers, in POC.

Record excerpt, results attached:
Cc1c(-c2cnn(C)c2)nn(-c2ccccc2)c1NC(=O)NC1CCOc2cc(F)ccc21 (stereo not shown) [Example 12] :: 107.5
Cc1c(-c2cnn(C)c2)nn(-c2ccccc2)c1NC(=O)N[C@H]1CCCc2ccccc21 [Example 2] :: 117.5
Cc1c(-c2ccc(=O)n(C)c2)nn(-c2ccccc2)c1NC(=O)NC1CN(CC(F)(F)F)Cc2ccccc21 (stereo not shown) [Example 26] :: 116

Now examine the next entry.
Return reported Avg. POC; argument: COCc1ccc2c(c1)C(NC(=O)Nc1c(C)c(-c3cnn(C)c3)nn1-c1ccccc1)COC2 (stereo not shown) [Example 32]
104

###

# system: UniProt Q05655
# Sequence (Q05655 whole entry): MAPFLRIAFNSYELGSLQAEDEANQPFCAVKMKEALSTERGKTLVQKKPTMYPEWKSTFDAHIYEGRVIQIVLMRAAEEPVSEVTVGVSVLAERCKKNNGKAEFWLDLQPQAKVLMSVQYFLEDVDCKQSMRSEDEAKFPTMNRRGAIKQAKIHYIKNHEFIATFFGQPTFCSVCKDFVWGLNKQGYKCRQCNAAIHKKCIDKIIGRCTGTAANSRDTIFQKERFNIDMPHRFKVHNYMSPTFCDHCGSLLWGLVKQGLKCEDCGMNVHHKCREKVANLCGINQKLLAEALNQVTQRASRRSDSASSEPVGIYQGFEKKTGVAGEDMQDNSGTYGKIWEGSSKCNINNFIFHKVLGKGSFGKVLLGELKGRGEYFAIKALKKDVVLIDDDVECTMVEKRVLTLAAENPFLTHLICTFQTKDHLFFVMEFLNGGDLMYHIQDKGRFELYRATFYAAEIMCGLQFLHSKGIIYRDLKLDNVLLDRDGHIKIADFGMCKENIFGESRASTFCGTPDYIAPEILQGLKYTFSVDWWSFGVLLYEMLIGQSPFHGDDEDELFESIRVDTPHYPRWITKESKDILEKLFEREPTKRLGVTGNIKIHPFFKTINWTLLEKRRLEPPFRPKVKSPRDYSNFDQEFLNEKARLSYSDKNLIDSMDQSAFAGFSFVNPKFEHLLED
# test: KinaseProfiler off-target kinase profiling
# Assay type: biochemical
# protocol.conditions: 10 μM, ATP near Km
Could you please report measured Avg. POC for the items listed next?
Give bare numbers, in POC.

Some entries whose results are on file:
Cc1c(-c2cnn(C)c2)nn(-c2ccccc2)c1NC(=O)N[C@H]1CCCc2ccccc21 [Example 2] :: 95
COCc1ccc2c(c1)C(NC(=O)Nc1c(C)c(-c3cnn(C)c3)nn1-c1ccccc1)COC2 (stereo not shown) [Example 32] :: 99
Cc1c(-c2cnn(C)c2)nn(-c2ccccc2)c1NC(=O)NC1CCOc2cc(F)ccc21 (stereo not shown) [Example 12] :: 97.5

If you can, please state the reported Avg. POC value of Cc1c(-c2ccc(=O)n(C)c2)nn(-c2ccccc2)c1NC(=O)NC1CN(CC(F)(F)F)Cc2ccccc21 (stereo not shown) [Example 26] .
105

###

# system: TNK2 (Homo sapiens (Human))
# Sequence (Q07912 whole entry): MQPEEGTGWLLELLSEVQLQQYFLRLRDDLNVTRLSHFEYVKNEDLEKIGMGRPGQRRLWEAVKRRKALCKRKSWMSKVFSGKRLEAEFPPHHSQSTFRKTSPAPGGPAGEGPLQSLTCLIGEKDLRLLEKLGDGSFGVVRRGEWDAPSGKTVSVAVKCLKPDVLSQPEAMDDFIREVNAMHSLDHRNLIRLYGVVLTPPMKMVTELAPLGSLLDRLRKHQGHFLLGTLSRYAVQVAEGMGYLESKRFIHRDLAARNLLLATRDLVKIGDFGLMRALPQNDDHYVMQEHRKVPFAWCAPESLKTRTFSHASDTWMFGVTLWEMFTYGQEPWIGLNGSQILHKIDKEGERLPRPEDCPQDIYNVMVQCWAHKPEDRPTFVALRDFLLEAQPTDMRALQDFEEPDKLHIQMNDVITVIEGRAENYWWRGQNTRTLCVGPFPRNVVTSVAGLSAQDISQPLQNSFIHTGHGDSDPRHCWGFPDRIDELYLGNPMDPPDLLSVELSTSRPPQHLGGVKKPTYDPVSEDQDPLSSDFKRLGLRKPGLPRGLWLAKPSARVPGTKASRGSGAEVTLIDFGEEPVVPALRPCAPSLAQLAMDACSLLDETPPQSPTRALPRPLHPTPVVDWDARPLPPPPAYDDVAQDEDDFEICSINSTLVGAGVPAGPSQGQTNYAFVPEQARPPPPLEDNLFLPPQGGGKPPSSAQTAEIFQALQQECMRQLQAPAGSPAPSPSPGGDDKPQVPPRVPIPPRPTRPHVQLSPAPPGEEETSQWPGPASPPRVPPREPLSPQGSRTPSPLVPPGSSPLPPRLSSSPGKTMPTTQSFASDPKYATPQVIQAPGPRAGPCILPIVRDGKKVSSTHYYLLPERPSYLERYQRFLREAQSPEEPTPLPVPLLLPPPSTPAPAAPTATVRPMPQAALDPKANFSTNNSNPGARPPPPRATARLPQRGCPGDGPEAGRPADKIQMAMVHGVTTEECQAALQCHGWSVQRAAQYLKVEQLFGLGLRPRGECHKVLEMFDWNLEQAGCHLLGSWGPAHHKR
# test: KinaseProfiler off-target kinase profiling
# Assay type: biochemical
# protocol.conditions: 10 μM, ATP near Km
measured.quantity: Avg. POC (POC)
Give bare numbers, in POC.

COCc1ccc2c(c1)C(NC(=O)Nc1c(C)c(-c3cnn(C)c3)nn1-c1ccccc1)COC2 (stereo not shown) [Example 32] :: 132
Cc1c(-c2cnn(C)c2)nn(-c2ccccc2)c1NC(=O)NC1CCOc2cc(F)ccc21 (stereo not shown) [Example 12] :: 117.5
Cc1c(-c2ccc(=O)n(C)c2)nn(-c2ccccc2)c1NC(=O)NC1CN(CC(F)(F)F)Cc2ccccc21 (stereo not shown) [Example 26] :: 123

As a next step, examine the compound that follows.
# Avg. POC lookup, item Cc1c(-c2cnn(C)c2)nn(-c2ccccc2)c1NC(=O)N[C@H]1CCCc2ccccc21 [Example 2]
100.5

###

For each record, write down the corresponding Avg. POC.
# system: UniProt P05771
# Sequence (P05771 other isoform, or with tags, fused parts or gaps): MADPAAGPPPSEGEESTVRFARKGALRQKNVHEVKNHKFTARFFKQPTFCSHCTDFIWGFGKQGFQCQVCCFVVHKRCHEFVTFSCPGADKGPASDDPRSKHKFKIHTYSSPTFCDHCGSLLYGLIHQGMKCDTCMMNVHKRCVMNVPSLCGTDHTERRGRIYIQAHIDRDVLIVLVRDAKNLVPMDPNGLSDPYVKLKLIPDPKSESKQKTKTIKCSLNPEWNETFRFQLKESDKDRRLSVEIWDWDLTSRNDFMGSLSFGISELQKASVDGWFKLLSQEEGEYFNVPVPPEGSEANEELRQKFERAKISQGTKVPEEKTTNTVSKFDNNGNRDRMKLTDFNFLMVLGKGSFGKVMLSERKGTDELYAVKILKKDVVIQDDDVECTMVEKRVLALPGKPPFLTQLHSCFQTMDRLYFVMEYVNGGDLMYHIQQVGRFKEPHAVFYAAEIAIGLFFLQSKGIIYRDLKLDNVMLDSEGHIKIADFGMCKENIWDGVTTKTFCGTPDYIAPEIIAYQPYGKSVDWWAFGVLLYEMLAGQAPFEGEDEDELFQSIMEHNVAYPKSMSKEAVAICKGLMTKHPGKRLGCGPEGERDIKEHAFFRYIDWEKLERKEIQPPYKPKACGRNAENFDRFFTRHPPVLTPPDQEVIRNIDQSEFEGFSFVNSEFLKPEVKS
# test: KinaseProfiler off-target kinase profiling
# Format: biochemical
# protocol.conditions: 10 μM, ATP near Km
Answers are plain numbers, in POC.

Answered cases to consult:
Cc1c(-c2ccc(=O)n(C)c2)nn(-c2ccccc2)c1NC(=O)NC1CN(CC(F)(F)F)Cc2ccccc21 (stereo not shown) [Example 26] :: 99
COCc1ccc2c(c1)C(NC(=O)Nc1c(C)c(-c3cnn(C)c3)nn1-c1ccccc1)COC2 (stereo not shown) [Example 32] :: 100.5
Cc1c(-c2cnn(C)c2)nn(-c2ccccc2)c1NC(=O)N[C@H]1CCCc2ccccc21 [Example 2] :: 95.5

Lab note: next molecule to report on.
Please provide the recorded Avg. POC for Cc1c(-c2cnn(C)c2)nn(-c2ccccc2)c1NC(=O)NC1CCOc2cc(F)ccc21 (stereo not shown) [Example 12] , tested on UniProt P05771.
100

Data provenance: patent US10351575B2
